Test Details: Serum pharmacokinetics of AEE788 and its metabolite AQM674
Reported Conditions: human, serum, oral, 400 mg/day
Assay Metric: Cmax

Incoming: Recall and state the measured Cmax for CCN1CCN(Cc2ccc(-c3cc4c(N[C@H](C)c5ccccc5)ncnc4[nH]3)cc2)CC1 [AEE788] .
Outgoing: 77.1 ng/mL

====

Test Details: Serum pharmacokinetics of AEE788 and its metabolite AQM674
Reported Conditions: human, serum, oral, 250 mg/day
Assay Metric: AUC(0-t) (ng·h/mL)
Note: unit ng·h/mL is implicit; provide only the numeric part.

Incoming: Recall and state the measured AUC(0-t) for CCN1CCN(Cc2ccc(-c3cc4c(N[C@H](C)c5ccccc5)ncnc4[nH]3)cc2)CC1 .
Outgoing: 1440

====

Test Details: Serum pharmacokinetics of AEE788 and its metabolite AQM674
Reported Conditions: human, serum, oral, 600 mg/day
Assay Metric: AUC(0-t)
Hi, when you answer, please include the unit after the number. Thanks!

Incoming: Recall and state the measured AUC(0-t) for CCN1CCN(Cc2ccc(-c3cc4c(N[C@H](C)c5ccccc5)ncnc4[nH]3)cc2)CC1 .
Outgoing: 730 ng·h/mL

====

Test Details: Serum pharmacokinetics of AEE788 and its metabolite AQM674
Reported Conditions: human, serum, oral
Assay Metric: half-life

Incoming: Recall and state the measured half-life for CCN1CCN(Cc2ccc(-c3cc4c(N[C@H](C)c5ccccc5)ncnc4[nH]3)cc2)CC1 .
Outgoing: > 24 h

====

Test Details: Serum pharmacokinetics of AEE788 and its metabolite AQM674
Reported Conditions: human, serum, oral, 250 mg/day
Assay Metric: Cmax (ng/mL)
Note: unit ng/mL is implicit; provide only the numeric part.

Incoming: Recall and state the measured Cmax for CCN1CCN(Cc2ccc(-c3cc4c(N[C@H](C)c5ccccc5)ncnc4[nH]3)cc2)CC1 [AEE788] .
Outgoing: 74.5

====

Test Details: Serum pharmacokinetics of AEE788 and its metabolite AQM674
Reported Conditions: human, serum, oral, 550 mg/day
Assay Metric: Tmax (h)
Note: unit h is implicit; provide only the numeric part.

Incoming: Recall and state the measured Tmax for CCN1CCN(Cc2ccc(-c3cc4c(N[C@H](C)c5ccccc5)ncnc4[nH]3)cc2)CC1 .
Outgoing: 12.5

====

Format: in vivo, human
Reported Conditions: human, serum, oral, 250 mg, Serum concentration, Patient 1; approximately 12 hours after 8th AEE788 (250 mg) dose
Assay Metric: concentration at 12 h
Hi, when you answer, please include the unit after the number. Thanks!

Incoming: Recall and state the measured concentration at 12 h for CCN1CCN(Cc2ccc(-c3cc4c(N[C@H](C)c5ccccc5)ncnc4[nH]3)cc2)CC1 .
Outgoing: 57.3 ng/mL

====

Test Details: Serum pharmacokinetics of AEE788 and its metabolite AQM674
Reported Conditions: human, serum, oral, 250 mg/day
Assay Metric: Tmax (h)
Note: unit h is implicit; provide only the numeric part.

Incoming: Recall and state the measured Tmax for CCN1CCN(Cc2ccc(-c3cc4c(N[C@H](C)c5ccccc5)ncnc4[nH]3)cc2)CC1 .
Outgoing: 5.9

====

Type: in vivo, human
Reported Conditions: human, glioblastoma tumor / plasma, oral, 250 mg
Assay Metric: Kp

Incoming: Recall and state the measured Kp for CCN1CCN(Cc2ccc(-c3cc4c(N[C@H](C)c5ccccc5)ncnc4[nH]3)cc2)CC1 .
Outgoing: 14 to 59

====

Test Details: Serum pharmacokinetics of AEE788 and its metabolite AQM674
Reported Conditions: human, serum, oral, 600 mg/day
Assay Metric: Cmax (ng/mL)
Note: unit ng/mL is implicit; provide only the numeric part.

Incoming: Recall and state the measured Cmax for CCN1CCN(Cc2ccc(-c3cc4c(N[C@H](C)c5ccccc5)ncnc4[nH]3)cc2)CC1 [AEE788] .
Outgoing: 71.8
